Molecular target: T1, human GIP receptor (human, UniProt P48546 22-466)
T1 construct: whole, on cells; also called hGIPR; human glucose-dependent insulinotropic polypeptide receptor
T1 sequence (looked up): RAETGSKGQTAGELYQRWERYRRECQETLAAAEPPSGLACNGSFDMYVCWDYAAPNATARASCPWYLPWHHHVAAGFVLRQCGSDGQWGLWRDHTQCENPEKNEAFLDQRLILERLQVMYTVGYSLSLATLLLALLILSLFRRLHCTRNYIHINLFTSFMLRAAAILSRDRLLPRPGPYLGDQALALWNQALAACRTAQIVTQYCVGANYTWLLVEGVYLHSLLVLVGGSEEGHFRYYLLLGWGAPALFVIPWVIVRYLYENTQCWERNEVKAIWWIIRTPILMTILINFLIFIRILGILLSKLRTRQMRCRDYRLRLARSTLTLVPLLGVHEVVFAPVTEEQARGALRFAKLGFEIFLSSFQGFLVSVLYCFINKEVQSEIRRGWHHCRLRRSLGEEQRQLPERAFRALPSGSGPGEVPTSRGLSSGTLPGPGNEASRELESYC
Assay: SPA competition vs [125I]-GIP, hGIPR membranes
Metric Name: pKi
# pKi: negative log10 of molar concentration; output just the value

Reported pKi for YXEGTXTSDXSIXLDXKAQXEFIXXLIEGGKSSGAPPPS (Aib2, αMeF(2F)6, 4Pal10, αMeL13, Orn16, K17(Z1), Aib20, D-Glu24, αMeY25, K31(Z1), C-term NH2; Z1=AEEA-(εK)-(γ-Glu)-CO-(CH2)12-CO2H) was 10.11

In plain terms, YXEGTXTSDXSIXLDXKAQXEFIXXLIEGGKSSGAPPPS (Aib2, αMeF(2F)6, 2Nal10, αMeL13, Orn16, K17(Z1), Aib20, D-Glu24, αMeY25, K31(Z1), C-term NH2; Z1=AEEA2-(γ-Glu)-CO-(CH2)12-CO2H) has a documented pKi of 9.53

Kindly note the recorded pKi for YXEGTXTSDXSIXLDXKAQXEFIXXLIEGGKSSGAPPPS (Aib2, αMeF(2F)6, 4Pal10, αMeL13, Orn16, K17(Z1), Aib20, D-Glu24, αMeY25, K31(Z1), C-term NH2; Z1=(γ-Glu)-AEEA2-CO-(CH2)12-CO2H) , which is 9.97

Reported pKi ( YXEGTXTSDXXIXLDXQAQXXFIKXLIKGGPSSGAPPPS (Aib2, αMeF(2F)6, 4Pal10, Aib11, αMeL13, Orn16, Aib20, Orn21, K24(Z1), αMeY25, K28(Z1), C-term NH2; Z1=PEG3-(γ-Glu)-CO-(CH2)12-CO2H) ) = 10.63

The binder YXEGTXTSDXSIXLDXIAQXEFIXXLIKGGKSSGAPPPS (Aib2, αMeF(2F)6, 4Pal10, αMeL13, Orn16, Aib20, D-Glu24, αMeY25, K28(Z1), K31(Z1), C-term NH2; Z1=AEEA2-(γ-Glu)-CO-(CH2)12-CO2H) showed pKi equal to 10.14

Reported pKi for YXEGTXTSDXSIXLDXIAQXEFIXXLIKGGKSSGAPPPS (Aib2, αMeF(2F)6, 4Pal10, αMeL13, Orn16, Aib20, D-Glu24, αMeY25, K28(Z1), K31(Z1), C-term NH2; Z1=AEEA2-(γ-Glu)-CO-(CH2)14-CH3) was 10.06

YXEGTXTSDXSIXLDXIAQXKFIXXLIEGGPSSGAPPPSK (Aib2, αMeF(2F)6, 4Pal10, αMeL13, Orn16, Aib20, K21(Z1), D-Glu24, αMeY25, K40(Z1), C-term NH2; Z1=AEEA2-(γ-Glu)-CO-(CH2)12-CO2H) has a reported pKi of 9.97

Per the records, this binder ( YXEGTXTSDXXIXLDXIAQXEFIKXLIKGGPSSGAPPPS (Aib2, αMeF(2F)6, 4Pal10, Aib11, αMeL13, Orn16, Aib20, K24(Z1), αMeY25, K28(Z1), C-term NH2; Z1=AEEA2-(γ-Glu)-(10-(4-carboxyphenoxy)decanoyl)) ) has pKi equal to 10.36

The binder YXEGTXTSDXSIXLDXKAQXKFIXXLIEGGPSSGAPPPS (Aib2, αMeF(2F)6, 4Pal10, αMeL13, Orn16, K17(Z1), Aib20, K21(Z1), D-Glu24, αMeY25, C-term NH2; Z1=AEEA2-CO-(CH2)12-CO2H) showed pKi equal to 10.20

The recorded pKi for YXEGTXTSDKXIXLDXKAQXEFIXXLIEGGPSSGAPPPS (Aib2, αMeF(2F)6, K10(Z1), Aib11, αMeL13, Orn16, K17(Z1), Aib20, D-Glu24, αMeY25, C-term NH2; Z1=AEEA3-(γ-Glu)-CO-(CH2)10-CH3) is 10.61

Query YXEGTXTSDXSKXLDXKAQXEFIXXLIEGGPSSGAPPPS (Aib2, αMeF(2F)6, 4Pal10, K12(Z1), αMeL13, Orn16, K17(Z1), Aib20, D-Glu24, αMeY25, C-term NH2; Z1=AEEA2-(γ-Glu)-CO-(CH2)12-CO2H) yields pKi of 10.01

Looking up YXEGTXTSDYXIXLDXQAQXXFIKXLIKGGPSSGAPPPS (Aib2, αMeF(2F)6, Aib11, αMeL13, Orn16, Aib20, Orn21, K24(Z1), αMeY25, K28(Z1), C-term NH2; Z1=AEEA2-(γ-Glu)-C10_4CP (so in the source)) , I see its pKi listed as 10.58

Looking up YXEGTXTSDXXIXLDXKAQXEFIXXLIKGGPSSGAPPPS (Aib2, αMeF(2F)6, 4Pal10, Aib11, αMeL13, Orn16, K17(Z1), Aib20, D-Glu24, αMeY25, K28(Z1), C-term NH2; Z1=AEEA-(γ-Glu)-CO-(CH2)12-CO2H) , I found its pKi recorded as 10.13
